Experiment: Solubility of oxime ester compound in solvent
Assay type: physicochemical
Settings: solvent PGM-Ac: Propylene glycol-1-monomethyl ether-2-acetate
Procedure: When used as a photopolymerization initiator, they dissolve in propylene glycol-1-monomethyl ether-2-acetate or cyclohexanone as a solvent to a concentration of 1% by mass or higher, to satisfy the requirement as a photopolymerization initiator. The solubility measurement is preferably made at 20° to 30° C.
We label by threshold. Values of Solubility PGM-Ac strictly beneath 2% are TRUE. Values of 2% and up are FALSE.

[
  {
    "molecule": "COCC(C)OC(=O)Cn1c2ccc(/C(C)=N/OC(C)=O)cc2c2cc([N+](=O)[O-])ccc21 (centres unmarked)",
    "group": "TRUE"
  },
  {
    "molecule": "CCCCC(CC)Cn1c2ccc(/C(=N/OC(C)=O)c3ccccc3OCCOC)cc2c2cc([N+](=O)[O-])ccc21 (centres unmarked)",
    "group": "TRUE"
  },
  {
    "molecule": "CCn1c2ccc(/C(=N/OC(C)=O)c3ccc(OC(C)C)cc3OC(C)C)cc2c2cc([N+](=O)[O-])ccc21",
    "group": "FALSE"
  },
  {
    "molecule": "CCCCC(CC)Cn1c2ccc(/C(=N/OC(C)=O)c3ccc(OCC)cc3OCC)cc2c2cc([N+](=O)[O-])ccc21 (centres unmarked)",
    "group": "FALSE"
  },
  {
    "molecule": "CCCCCCCCn1c2ccc(/C(C)=N/OC(C)=O)cc2c2cc([N+](=O)[O-])ccc21",
    "group": "TRUE"
  },
  {
    "molecule": "CCCCC(CC)Cn1c2ccc(/C(=N/OC(C)=O)c3ccc(C(C)(C)C)cc3)cc2c2cc([N+](=O)[O-])ccc21 (centres unmarked)",
    "group": "FALSE"
  },
  {
    "molecule": "C=CC(=O)OCCn1c2ccc(/C(CCCCCCCCCCC)=N/OC(C)=O)cc2c2cc([N+](=O)[O-])ccc21",
    "group": "TRUE"
  },
  {
    "molecule": "COCC(C)OC(=O)CCCCCn1c2ccc(/C(C)=N/OC(C)=O)cc2c2cc([N+](=O)[O-])ccc21 (centres unmarked)",
    "group": "FALSE"
  },
  {
    "molecule": "CCCCC(CC)Cn1c2ccc(/C(=N/OC(C)=O)c3ccc(F)cc3C)cc2c2cc([N+](=O)[O-])ccc21 (centres unmarked)",
    "group": "TRUE"
  },
  {
    "molecule": "CCCCCCCCCCCCn1c2ccc(/C(C)=N/OC(C)=O)cc2c2cc([N+](=O)[O-])ccc21",
    "group": "TRUE"
  },
  {
    "molecule": "CCn1c2ccc(/C(=N/OC(C)=O)c3ccc(OC(C)COC)cc3C)cc2c2cc([N+](=O)[O-])ccc21 (centres unmarked)",
    "group": "FALSE"
  },
  {
    "molecule": "CCCCC(CC)Cn1c2ccc(/C(C)=N/OC(C)=O)cc2c2cc([N+](=O)[O-])ccc21 (centres unmarked)",
    "group": "FALSE"
  },
  {
    "molecule": "CCn1c2ccc(/C(C)=N/OC(C)=O)cc2c2cc([N+](=O)[O-])ccc21",
    "group": "TRUE"
  },
  {
    "molecule": "CCCCCCCCCCCCCCn1c2ccc(/C(C)=N/OC(C)=O)cc2c2cc([N+](=O)[O-])ccc21",
    "group": "TRUE"
  },
  {
    "molecule": "CCCCCCCCCCCCCCCCn1c2ccc(/C(C)=N/OC(C)=O)cc2c2cc([N+](=O)[O-])ccc21",
    "group": "TRUE"
  },
  {
    "molecule": "CCCCCCC/C(=N\\OC(C)=O)c1ccc2c(c1)c1cc([N+](=O)[O-])ccc1n2CC(CC)CCCC (centres unmarked)",
    "group": "FALSE"
  },
  {
    "molecule": "CCCCCCCCCCC/C(=N\\OC(C)=O)c1ccc2c(c1)c1cc([N+](=O)[O-])ccc1n2CC(CC)CCCC (centres unmarked)",
    "group": "FALSE"
  }
]
